- Protocol Notes: Cytotoxicity against human HEK293 cells assessed as viable cells at 50 uM relative to control
- Type: toxicity, cell-based
- Condition Context: read-out: Activity
Reported Property: viability at 50 µM (%)
Provide only the numeric value, understood in %.

Given the entry CC(C)Oc1ccc(-c2ncc(CNc3ccnc(C#N)c3)s2)cc1Cl , report its measured viability at 50 µM. 51

* * *

# IC50 per entry for Cytochrome P450 2C9 (Homo sapiens, UniProt P11712)

Before answering, review these 2 worked examples.
# Smiles Data, IC50
records = [
    ("CC(C)Oc1ccc(-c2ncc(CNc3ccnc(C#N)c3)s2)cc1Cl", "> 25 µM"),
    ("FC(F)(F)c1cc(NCc2cn(-c3ccc(Oc4ccccc4)cc3)nn2)ccn1", "> 25 µM"),
]

Query the reported IC50 for Cytochrome P450 2C9 (Homo sapiens, UniProt P11712); item: CC(C)Oc1ccc(-c2ncc(CNc3ccnc(C(F)(F)F)c3)s2)cc1Cl 16.4 µM
